system: UACC-62 melanoma; test: NCI tumour cell line growth inhibition, 48 h
As shown below, each of these molecules has a reported TGI value.

| molecule | experimental-system | TGI |
| --- | --- | --- |
| COc1cc2c(cc1OCCCOS(C)(=O)=O)N=C[C@@H]1CCCN1C2=O | UACC-62 melanoma | > 100 µM |
| COc1cc2c(cc1OC)CC(=O)Nc1cc(OC)c(OC)cc1CC2 | UACC-62 melanoma | > 100 µM |
| O=C(Nc1cccc(C(F)(F)F)c1)C(=O)C1NC(=S)NC1=O (configuration not stated) | UACC-62 melanoma | > 100 µM |
| CN(C)CCCNc1ncnc2c1ncn2C1OC(CO)C(O)C1O (configuration not stated) | UACC-62 melanoma | > 100 µM |
| C=C/C(C)=C\CC1[C@](C)(O)CC[C@H]2C(C)(C)C(O)CC[C@]12C (some centres not stated) | UACC-62 melanoma | > 100 µM |
| O=c1/c(=C/c2ccc([N+](=O)[O-])o2)sc2n1[C@@H](c1ccc(Cl)cc1)C=C(c1cc(F)c(Cl)cc1Cl)N=2 | UACC-62 melanoma | 29.2 µM |
| CCCCNC(=O)C1C(=O)N(CCCC)C(=O)/C1=N\N (configuration not stated) | UACC-62 melanoma | > 100 µM |
| CCC1CCN=C(NS(=O)(=O)c2cc(C)c(Cl)cc2S)N1 (configuration not stated) | UACC-62 melanoma | 54.3 µM |
| O=C([O][Hg][CH2]C1OCCOC1[CH2][Hg][O]C(=O)c1ccccc1)c1ccccc1 (configuration not stated) | UACC-62 melanoma | 30.3 µM |
| C(=N\Nc1ccccc1)/c1nc2ccccc2nc1/C=N/Nc1ccccc1 | UACC-62 melanoma | 27.3 µM |
| O=C(O)CCc1nc2ccccc2[nH]1 | UACC-62 melanoma | > 100 µM |
| CCCCC(C(=O)CCC(=O)Nc1ccc(Cl)c(Cl)c1)C(=O)C(C)C (configuration not stated) | UACC-62 melanoma | > 100 µM |
| C[C@]12CC[C@H]3[C@@H](CC=C4C[C@@H](O)CC[C@@]43C)[C@@H]1C/C(=C/c1ccccc1)[C@@H]2O | UACC-62 melanoma | 56.5 µM |
| N#Cc1c(N)n2c(nc1=Nc1ccc(Cl)cc1)sc1cc(Cl)ccc12 | UACC-62 melanoma | > 100 µM |
| Cc1ccc(C(=O)Cn2c(C(=O)/C=C/c3cccs3)nc3ccccc32)cc1 | UACC-62 melanoma | > 100 µM |
| C[Si](C)(N[Si](C)(C)OCCc1ccccc1)OCCc1ccccc1 | UACC-62 melanoma | > 100 µM |
| CCCCCCCCCCCC(=O)N1CCN(C(C)=O)CC1 | UACC-62 melanoma | 34.9 µM |
| Cc1nc(N2N=C(c3ccc(Cl)cc3)CCC2=O)sc1[N+](=O)[O-] | UACC-62 melanoma | > 100 µM |
| C=CCN1COc2c(cc3c4c(cccc24)C(=O)O3)C1 | UACC-62 melanoma | 36.8 µM |
| C=C1CCCC(C)(C)C1CCC1(C)CCC(C(C)C(=O)OC)OO1 (configuration not stated) | UACC-62 melanoma | > 15.5 µM |
| O=C(SC1=NCCN1)c1cccc2ccccc12 | UACC-62 melanoma | > 100 µM |
| O=c1[nH]c(=O)c2cc3cc(C4CC(O)C(CO)O4)ccc3cc2[nH]1 (configuration not stated) | UACC-62 melanoma | > 100 µM |

====

As shown below, each of these compounds has a reported TGI value.
tested on: MALME-3M melanoma; experiment: NCI tumour cell line growth inhibition, 48 h

| compound | experimental-system | TGI |
| --- | --- | --- |
| C#C/C=C\CCCCCCCCCCCCCC/C=C\CCCCC#CC(O)C#CCCCC/C=C\CCCCCC/C=C/C(O)C#C (stereo unspecified) | MALME-3M melanoma | 33.8 µM |
| O=C1CC2(CCC3=C(O2)c2ccccc2NC(=O)C3)C(=O)c2ccccc2N1 (stereo unspecified) | MALME-3M melanoma | > 100 µM |
| COC(=O)c1ccccc1N1C(=O)Cc2ccccc2C1=O | MALME-3M melanoma | > 100 µM |
| O=C(/C=C/c1ccc(C(F)(F)F)cc1)c1c([O-])on[n+]1-c1ccccc1 | MALME-3M melanoma | > 100 µM |
| Cc1cc(C)n(-c2ccnc3cc(Cl)ccc23)n1 | MALME-3M melanoma | > 100 µM |
| Cc1ccc(C(c2c(O)c3ccccc3n(-c3ccccc3)c2=O)c2c(O)c3ccccc3n(-c3ccccc3)c2=O)cc1 | MALME-3M melanoma | > 100 µM |
| CC(=O)Nc1c(I)c(NC(C)=O)c(I)c(C(=O)O)c1I | MALME-3M melanoma | > 100 µM |
| O=[N+]([O-])c1ccc(C2CC(c3ccccc3)=Nc3ccccc3S2)cc1 (stereo unspecified) | MALME-3M melanoma | > 100 µM |
| Cn1cc(C2=C(c3c4n(c5ccccc35)CCC(CN)C4)C(=O)NC2=O)c2ccccc21 (stereo unspecified) | MALME-3M melanoma | 6.07 µM |
| OCCCNc1ncnc2[nH]ncc12 | MALME-3M melanoma | > 100 µM |
| Cc1c(Cl)nc(Cl)nc1Cl | MALME-3M melanoma | 2.68 µM |

====

As shown below, each of these compounds has a reported log10 TGI value.
test system: HS 578T breast; test: NCI tumour cell line growth inhibition, 48 h
metric: log10 TGI (log10 of the value in µM)

| compound | reading |
| --- | --- |
| Clc1ccc(Nc2ccnc(N3CCN(c4ccnc5cc(Cl)ccc45)CC3)n2)cc1 | 0.89 |
| CC(C)(C)[Si](C)(C)OCC1OC(n2cc(I)c(=O)[nH]c2=O)C(O[Si](C)(C)C(C)(C)C)C1O[Si](C)(C)C(C)(C)C (stereo not drawn) | 1.76 |
| NC(=O)c1cccc(N=c2oc3ccc(Br)cc3cc2-c2nc3ccccc3[nH]2)c1 | 1.87 |
| Cc1ccc([N+](=O)[O-])cc1S(=O)(=O)Nc1ccc(C2=NOC(c3cccs3)C2)cc1 (stereo not drawn) | 1.92 |
| CC1=NC2c3c(-c4ccc(Cl)cc4)cn(-c4ccc(C)cc4)c3N=CN2N1 (stereo not drawn) | 1.58 |
| C=C1C(=O)O[C@H]2[C@H]1CC/C(C=Nc1c(N)cc(C(F)(F)F)cc1C(F)(F)F)=C\CC[C@@]1(C)O[C@@H]21 | 0.87 |
| O=[N+]([O-])c1ccc(C2=Nn3c(nnc3-c3ccc(Cl)cc3)SC2)o1 | 1.26 |
| Cc1c2c(OCC(O)CN3CCN(c4ccccc4)CC3)nn(C)c(=O)c2c(C)n1-c1ccccc1 (stereo not drawn) | 1.82 |

====

system: DMS 273 small cell lung; experiment: NCI tumour cell line growth inhibition, 48 h

| molecule | TGI |
| --- | --- |
| N#CC1=C(c2ccccc2)C(=C2Nc3ccccc3N2)C2S/C(=C\c3ccccc3)C(=O)N2C1=N (centres undefined) | 4.9 µM |
| Cc1nn2c(nc1=O)sc1ccc3ccccc3c12 | > 100 µM |
| O=C(O)COc1ccc(C(=O)/C(SS/C(C(=O)c2ccc(OCC(=O)O)c(Cl)c2Cl)=C2\C=C(c3ccc(Cl)cc3)SS2)=C2/C=C(c3ccc(Cl)cc3)SS2)c(Cl)c1Cl | 32.7 µM |
| O=[N+]([O-])c1ccc(C2=Nn3c(nnc3-c3ccc(Cl)cc3)SC2)o1 | 31.1 µM |
| O=C(NC(=O)c1ccccc1[N+](=O)[O-])Nc1ccc(Oc2ncc(Cl)cn2)c([N+](=O)[O-])c1 | > 100 µM |
| Cc1[nH]c(=O)[nH]c(=O)c1/C=C/C(=O)NC(CO)CS(=O)Cc1ccccc1 (centres undefined) | > 300 µM |
| CCCCC(C(=O)CCC(=O)Nc1ccc(Cl)c(Cl)c1)C(=O)C(C)C (centres undefined) | > 100 µM |
| CCCn1cc2c(SC)nc(SC)nc2n1 | > 100 µM |
| C/C(CC(=O)Nc1cc(C)ccc1C)=N/N=C(N)N | > 100 µM |

====

test system: HL-60(TB) leukemia; assay: NCI tumour cell line growth inhibition, 48 h
As shown below, each of these compounds has a reported TGI value.

| compound | TGI |
| --- | --- |
| CC1(C)CC(=O)C2=C(C1)NC1=C(C2)C(=O)CC(C)(C)C1 | > 100 µM |
| CC(=NNC(=S)Nc1cccc(C)c1)c1cccc(C(C)=NNC(=S)Nc2cccc(C)c2)n1 | 70.1 µM |
| N#Cc1ccc(N2CCOCC2)cc1 | > 100 µM |
| CCOC(=O)c1cc(C(=O)c2cc(OC)c(OC)c(OC)c2)n2c1ccc1ccccc12 | > 100 µM |
| C[C@@H](NC(=O)/C(C#N)=C/c1ccc([N+](=O)[O-])cc1)c1ccccc1 | 5.51 µM |
| Cc1ccc(-c2n[nH]c(=O)n2NC(=O)c2ccccc2C(=O)O)cc1 | > 100 µM |
| CCOP12(OCC)NC(=O)OC1(C(F)(F)F)c1ccccc1O2 (stereo not given) | > 100 µM |
| O=C(NNC1=NCCCCN1)Nc1ccc(Cl)cc1 | > 100 µM |
| O=C(OC1CCC2OOC1O2)c1ccc([N+](=O)[O-])cc1 (stereo not given) | > 100 µM |
| COc1cc(/C(=C2/O[C@@H]([C@H]3COC(C)(C)O3)[C@H]3OC(C)(C)O[C@@H]23)c2ccc3ccccc3c2)cc(OC)c1OC | > 100 µM |
